Tested on: EKVX NSCLC
Protocol Description: NCI tumour cell line growth inhibition, 48 h
Value Type: TGI (µM)
Give bare numbers, in µM.

# TGI lookup, item COc1cc(C(=O)Oc2c(C(C)=O)sc3c2c(=O)n(-c2ccccc2)c(=S)n3-c2ccccc2)cc(OC)c1OC
40.8

Next, consider the following compound.
# TGI lookup, item COc1ccc(/C=C2\CCC(CCN(C)C)(C3=CCCC3)C2=O)cc1 (stereo not drawn)
39.9

###

Kindly state TGI for each of the entries shown.
System: SK-OV-3 ovarian
Protocol Description: NCI tumour cell line growth inhibition, 48 h

Answered examples (2):
# TGI lookup, item O=[N+]([O-])c1ccc(C2ON=C(c3ccccc3)N2C23CC4CC(CC(C4)C2)C3)cc1 (stereo unspecified)
> 10 µM

# TGI lookup, item COc1cc(OC)c2sc(-c3ccc(-n4cncc4-c4ccc(OC)c(OC)c4)cc3)nc2c1
> 100 µM

Report TGI for every entry below.
1. CC(Oc1ccc(Oc2cnc3ccc(Cl)cc3n2)cc1)C(=O)O (stereo unspecified)
2. C=C1C[C@@H](O)[C@@H](Br)C(C)(C)[C@@]12C=CC(=O)CC2
3. CC12CC(=O)Nc3ccccc3N1C(c1ccccc1)=NO2 (stereo unspecified)
4. COc1cc2c(c3c1c(=O)c1ccccc1n3C)C=CC(C)(C)O2
5. COc1ccc(O)c(C(=O)CCC(=O)O)c1
6. Cn1cc(-c2cc(-c3cn(C)c4ccc(Cl)cc34)[nH]n2)c2cc(Cl)ccc21

1. > 100 µM
2. > 100 µM
3. > 100 µM
4. > 100 µM
5. > 100 µM
6. > 100 µM

Report TGI for every entry below.
1. N#[N+]c1c([O-])c2ccccc2c2ccccc12
2. CC1CN=C(Nc2cccc(F)c2)S1 (stereo unspecified)
3. COc1cc(-c2ccc(N=Nc3ccc4c(S(=O)(=O)O)cc(S(=O)(=O)O)c(N)c4c3O)c(OC)c2)ccc1N=Nc1ccc2c(S(=O)(=O)O)cc(S(=O)(=O)O)c(N)c2c1O

["> 100 µM", "> 100 µM", "> 100 µM"]
